biological target: DJA2 (Homo sapiens); construct: made in house; test: Competition ELISA: soluble peptide vs DJA2 binding to immobilized 1097-L; settings: 1 μM DJA2, 100 μM soluble peptide, Fig. 3c/5; cutoff twice SD of 733-L; n ≥ 4
Sequence (O60884 whole entry): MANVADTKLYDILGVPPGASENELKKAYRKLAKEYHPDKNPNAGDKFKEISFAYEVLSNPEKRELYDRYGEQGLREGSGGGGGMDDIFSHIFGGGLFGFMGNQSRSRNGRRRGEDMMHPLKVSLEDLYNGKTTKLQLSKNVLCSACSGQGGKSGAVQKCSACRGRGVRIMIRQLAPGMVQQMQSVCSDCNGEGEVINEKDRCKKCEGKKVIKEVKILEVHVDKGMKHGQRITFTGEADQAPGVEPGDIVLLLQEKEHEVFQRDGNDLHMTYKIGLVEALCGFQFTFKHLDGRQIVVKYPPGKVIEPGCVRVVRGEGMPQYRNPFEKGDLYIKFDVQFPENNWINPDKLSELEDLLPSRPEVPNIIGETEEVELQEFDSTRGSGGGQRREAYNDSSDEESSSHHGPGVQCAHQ
Ends that are not written are not given here.
measurement-type: DJA2 binding site by competition screen (in words)

sequence: TSLLMVIMG [Peptide 469-S]
system-tested: DJA2 (Homo sapiens)
val: HSC70-DJA2 sites
//
sequence: QKVFIFSGTF [Peptide 1295-S]
system-tested: DJA2 (Homo sapiens)
val: HSC70-DJA2 sites

* * *

Biological target: DJA2 (Homo sapiens)
Construct: made in house
Experiment: Competition ELISA: soluble peptide vs DJA2 binding to immobilized 1097-L
Settings: read-out: Kd from competition curves, DJA2
Description: HSC70, DJA1 and DJA2 were purified as His-tagged proteins, as described. HSC70 was also amplified by PCR with an N-terminal FLAG tag, inserted into pPROEXHTa (Invitrogen) and purified as described. HSC70 was stored in 100 mM KOAc, 20 mM HEPES-KOH pH 7.5, 5 mM MgOAC2 (buffer G), DJA1 and DJA2 in 500 mM NaCl, 20 mM HEPES-KOH pH 7.5, 5 mM MgOAC2 (buffer H). Avi-tagged CFTR NBD1 was purified as described. […] Affinities were determined separately from binding curves and from competition curves. […]
Ends that are not written are not given here.
measurement-type: pKd
Give bare numbers, as −log10 of the molar value.

Using the record for FLYLSTLRWFQMRIE [Peptide 1097-L] , report its pKd. 6.23
